- SUBJECT_OF_TEST: HLA-A*33:01
- TEST_METHOD_NOTES: IEDB peptide-MHC binding, purified MHC/competitive/radioactivity; filed as Kd, often an IC50 or EC50 that approximates it; bounds were set here for any values at or beyond the usual limits of such assays
- TEST_CONTEXT: source organism: Lymphocytic choriomeningitis virus (strain Pasteur)
READOUT_TYPE: pKd
pKd (log units): -log10 of the concentration in mol/L.

Fill blank: measured pKd of the sequence TYLGPLNCK is ____.
6.08

* * *

- SUBJECT_OF_TEST: HLA-B*45:06
- TEST_METHOD_NOTES: IEDB peptide-MHC binding, purified MHC/competitive/fluorescence; filed as Kd, often an IC50 or EC50 that approximates it; bounds were set here for any values at or beyond the usual limits of such assays
- TEST_CONTEXT: source organism: Escherichia coli HS
pKd: −log10 of the molar value.
READOUT_TYPE: pKd

HLA-B*45:06 / pKd / YLREHIRAM : value?
≤ 5.30

* * *

- SUBJECT_OF_TEST: HLA-A*03:01
- TEST_METHOD_NOTES: IEDB peptide-MHC binding, purified MHC/direct/fluorescence; filed as Kd, often an IC50 or EC50 that approximates it; bounds were set here for any values at or beyond the usual limits of such assays
- TEST_CONTEXT: source organism: Vibrio parahaemolyticus
Please go through the items and note down their Kd.

Fill blank: measured Kd of the sequence QYDDLHKKF is ____.
≥ 20 µM

Fill blank: measured Kd of the sequence ASEELMDKY is ____.
≥ 20 µM

Fill blank: measured Kd of the sequence VFMDNAFKK is ____.
1.38 µM

* * *

- SUBJECT_OF_TEST: HLA-A*02:01
- TEST_METHOD_NOTES: IEDB peptide-MHC binding, purified MHC/competitive/fluorescence; filed as Kd, often an IC50 or EC50 that approximates it; bounds were set here for any values at or beyond the usual limits of such assays
- TEST_CONTEXT: source organism: Vaccinia virus
READOUT_TYPE: pKd
pKd (log units): -log10 of the concentration in mol/L.

Fill blank: measured pKd of the sequence LVEKVLKIL is ____.
6.00

* * *

- SUBJECT_OF_TEST: HLA-B*08:01
- TEST_METHOD_NOTES: IEDB peptide-MHC binding, purified MHC/competitive/radioactivity; filed as Kd, often an IC50 or EC50 that approximates it; bounds were set here for any values at or beyond the usual limits of such assays
- TEST_CONTEXT: source organism: Dengue virus 4 Philippines/H241/1956
Please go through the items and note down their pKd.
pKd (log units): -log10 of the concentration in mol/L.

Fill blank: measured pKd of the sequence RKSGKKVIQL is ____.
6.52

Fill blank: measured pKd of the sequence LAGPMVAGGL is ____.
5.11

* * *

- SUBJECT_OF_TEST: HLA-A*31:01
- TEST_METHOD_NOTES: IEDB peptide-MHC binding, purified MHC/competitive/radioactivity; filed as Kd, often an IC50 or EC50 that approximates it; bounds were set here for any values at or beyond the usual limits of such assays
- TEST_CONTEXT: source organism: Vaccinia virus WR
Please go through the items and note down their pKd.
pKd (log units): -log10 of the concentration in mol/L.

Fill blank: measured pKd of the sequence GLYNHNNTTY is ____.
5.10

Fill blank: measured pKd of the sequence TVENNIDFLK is ____.
5.06

Fill blank: measured pKd of the sequence TIDNPTKYIR is ____.
6.94

Fill blank: measured pKd of the sequence KFAEESYTY is ____.
4.87

Fill blank: measured pKd of the sequence NIVTDLENR is ____.
5.76

Fill blank: measured pKd of the sequence AVNKSNKPLK is ____.
5.81

Fill blank: measured pKd of the sequence TINVNSLALK is ____.
5.95
